meta.source: ChEMBL document CHEMBL3132760

# Tgt: Gamma-secretase
# Protocol Text: Inhibition of gamma-secretase (unknown origin) expressed in CHO cells expressing APP assessed as inhibition of amyloid beta 42 production
pIC50: −log10 of the molar value.
Measure: pIC50

Illustrative cases are given below, each with its answer.
C#CCCCCNC(=O)[C@H](Cc1ccc(C(=O)c2ccccc2)cc1)NC(=O)[C@H](CC(C)C)NC(=O)[C@H](Cc1ccccc1)C[C@@H](O)[C@H](Cc1ccccc1)NC(=O)c1ccc(C(=O)c2ccccc2)cc1 : 6.74
C#CCCCC(=O)Nc1ccc(C(=O)c2ccc(NC(=O)COCCOCCOCC(=O)NCCCOCCOCCOCCCNC(=O)[C@H](Cc3ccccc3)NC(=O)[C@H](CC(C)C)NC(=O)[C@H](Cc3ccccc3)C[C@@H](O)[C@H](Cc3ccccc3)NC(=O)OC(C)(C)C)cc2)cc1 : 7.64
C#CCOc1ccc(C(=O)c2ccc(OCCOCCOCCNC(=O)[C@H](Cc3ccc(C(=O)c4ccccc4)cc3)NC(=O)[C@H](CC(C)C)NC(=O)[C@H](Cc3ccccc3)C[C@@H](O)[C@H](Cc3ccccc3)NC(=O)OC(C)(C)C)cc2)cc1 : 8.82

P: C#CCCCC(=O)Nc1ccc(C(=O)c2ccc(NC(=O)COCCOCCOCC(=O)NCCCOCCOCCOCCCNC(=O)[C@H](Cc3ccc(C(=O)c4ccccc4)cc3)NC(=O)[C@H](CC(C)C)NC(=O)[C@H](Cc3ccccc3)C[C@@H](O)[C@H](Cc3ccccc3)NC(=O)OC(C)(C)C)cc2)cc1
Q: C#CCOc1ccc(C(=O)c2ccc(OCCOCCOCCNC(=O)[C@H](Cc3ccccc3)NC(=O)[C@H](CC(C)C)NC(=O)[C@H](Cc3ccccc3)C[C@@H](O)[C@H](Cc3ccccc3)NC(=O)OC(C)(C)C)cc2)cc1
R: C#CCCCC(=O)Nc1ccc(C(=O)c2ccc(NC(=O)COCCOCCOCC(=O)NCCCCCNC(=O)[C@H](Cc3ccc(C(=O)c4ccccc4)cc3)NC(=O)[C@H](CC(C)C)NC(=O)[C@H](Cc3ccccc3)C[C@@H](O)[C@H](Cc3ccccc3)NC(=O)OC(C)(C)C)cc2)cc1
S: C#CCCCC(=O)Nc1ccc(C(=O)c2ccc(NC(=O)COCCOCCOCC(=O)NCCCCCNC(=O)[C@H](Cc3ccccc3)NC(=O)[C@H](CC(C)C)NC(=O)[C@H](Cc3ccccc3)C[C@@H](O)[C@H](Cc3ccccc3)NC(=O)OC(C)(C)C)cc2)cc1
q: Rank by pIC50 (largest to smallest). Put the labels in the requested order and list them out.
a: Q, S, P, R
